Listed here: items and their measured pIC50.
system: KP-4 cells; assay: Human pancreatic cancer KP-4 cell activity inhibition test (CellTiter-Glo); type: cell-based; details: 5 days
pIC50: −log10 of the molar value.
ASSAY READOUT: pIC50

compound=COc1ccc(-c2cc3cn[nH]c3n(-c3ccc4nn(C)cc4c3)c2=O)cc1 tested_system="KP-4 cells" assay_readout=pIC50 censor_symbol=< reported_value=5.00
compound=CCOc1c(-c2ccc(OC(F)F)cc2)c(=O)n(-c2ccc3nn(CCO)cc3c2)c2[nH]ncc12 tested_system="KP-4 cells" assay_readout=pIC50 censor_symbol== reported_value=6.65
compound=CCOc1c(-c2ccc(OC(F)F)cc2)c(=O)n(-c2ccc3ncn(C)c3c2)c2[nH]ncc12 tested_system="KP-4 cells" assay_readout=pIC50 censor_symbol== reported_value=7.55
compound=CCOc1c(-c2ccc(OC(F)F)cc2)c(=O)n(-c2ccc3nn(CC)cc3c2)c2[nH]ncc12 tested_system="KP-4 cells" assay_readout=pIC50 censor_symbol== reported_value=8.13
